B1: Hairpin Ribozyme (parent)
chain: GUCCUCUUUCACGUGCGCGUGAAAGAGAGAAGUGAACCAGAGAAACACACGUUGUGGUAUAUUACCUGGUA

Variants of: B1
TEST METHOD NOTES: self-cleavage, relative activity (ratio to wild type); higher = more cleavage; co-transcriptional
self-cleavage of 0.2 or higher: T. Under 0.2: F.

[in] Check this variant for self-cleavage at or above 0.2: U14C G40A
[out] T

[in] Check if self-cleavage >= 0.2 (inclusive). Item: C50G G68U
[out] T

[in] Please indicate if the recorded self-cleavage for A23G G54C meets or exceeds 0.2.
[out] T

[in] Form field: self-cleavage at least 0.2? Entry: G13U C16U
[out] T

[in] # check: self-cleavage of G54U G68A is greater than or equal to 0.2
[out] T

[in] Tell me whether self-cleavage is at least 0.2 here: C4A G25A
[out] F

[in] Would you say G13C A43G shows self-cleavage at minimum 0.2?
[out] F

[in] Does self-cleavage meet or surpass 0.2 for U5C U52C ?
[out] T

[in] Decide: is the reported value of self-cleavage for G27U U62G equal to or greater than 0.2?
[out] F

[in] Dear colleague, could you confirm whether U5A A36U has self-cleavage at or above 0.2?
[out] T

[in] Does the variant G15C G40U have recorded self-cleavage that is 0.2 or more?
[out] T
